# TEST SYSTEM: KDR (VEGFR2) (Homo sapiens, UniProt P35968)
# Sequence (P35968 807-1356 limits assumed): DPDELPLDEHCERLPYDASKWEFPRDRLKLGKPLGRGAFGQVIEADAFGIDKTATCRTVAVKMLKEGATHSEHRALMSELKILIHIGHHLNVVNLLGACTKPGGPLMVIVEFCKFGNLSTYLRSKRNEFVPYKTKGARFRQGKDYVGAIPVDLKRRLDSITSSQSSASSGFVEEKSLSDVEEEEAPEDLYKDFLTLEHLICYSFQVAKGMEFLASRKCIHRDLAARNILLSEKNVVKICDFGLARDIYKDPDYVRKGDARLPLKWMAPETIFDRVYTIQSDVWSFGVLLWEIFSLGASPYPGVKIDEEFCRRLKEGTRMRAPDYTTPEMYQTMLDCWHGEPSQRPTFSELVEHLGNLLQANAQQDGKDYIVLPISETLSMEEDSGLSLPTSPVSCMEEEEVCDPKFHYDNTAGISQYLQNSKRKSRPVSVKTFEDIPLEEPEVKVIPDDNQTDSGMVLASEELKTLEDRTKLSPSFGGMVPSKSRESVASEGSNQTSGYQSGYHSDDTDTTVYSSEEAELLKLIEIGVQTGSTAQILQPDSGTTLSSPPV
As shown below, each of these molecules has a reported IC50 value.
MEASUREMENT NAME: IC50 (nM)

SMILES NOTATION: C[C@@H](O)[C@@H](C)Nc1nc(Nc2cccc(NC(=O)N=S(C)(C)=O)c2)ncc1Br
MEASUREMENT NAME: IC50
OUTPUT UNIT: nM
VALUE: 63
//
SMILES NOTATION: COc1ccc(Nc2ncc(Br)c(N[C@H](C)[C@@H](C)O)n2)cc1NC(=O)N=S(C)(C)=O
MEASUREMENT NAME: IC50
OUTPUT UNIT: nM
VALUE: 320
//
SMILES NOTATION: Cc1ccc(Nc2ncc(Br)c(N[C@H](C)[C@@H](C)O)n2)cc1NC(=O)N=S(C)(C)=O
MEASUREMENT NAME: IC50
OUTPUT UNIT: nM
VALUE: 130
//
SMILES NOTATION: C[C@@H](Nc1nc(Nc2ccc(NC(=O)N=S(C)(C)=O)cc2)ncc1Br)C(C)(C)O
MEASUREMENT NAME: IC50
OUTPUT UNIT: nM
VALUE: 230
//
SMILES NOTATION: C[C@@H](Nc1nc(Nc2ccc(C(=O)N=S(C)(C)=O)cc2)ncc1Br)C(C)(C)O
MEASUREMENT NAME: IC50
OUTPUT UNIT: nM
VALUE: 120
//
SMILES NOTATION: CS(C)(=O)=NC(=O)Nc1ccc(Nc2ncc(Br)c(Nc3ccc4[nH]cnc4c3)n2)cc1
MEASUREMENT NAME: IC50
OUTPUT UNIT: nM
VALUE: 64
//
SMILES NOTATION: C[C@@H](O)[C@@H](C)Nc1nc(Nc2cccc(C(=O)N=S(C)(C)=O)c2)ncc1Br
MEASUREMENT NAME: IC50
OUTPUT UNIT: nM
VALUE: 330
//
SMILES NOTATION: COc1cc(Nc2ncc(Br)c(N[C@H](C)[C@@H](C)O)n2)ccc1NC(=O)N=S(C)(C)=O
MEASUREMENT NAME: IC50
OUTPUT UNIT: nM
VALUE: 96
